The reported measurements were obtained from ChEMBL document CHEMBL1125913.

ASSAYED SYSTEM: Solute carrier family 2, facilitated glucose transporter member 1 (Homo sapiens, UniProt P11166)
Sequence (P11166 whole entry): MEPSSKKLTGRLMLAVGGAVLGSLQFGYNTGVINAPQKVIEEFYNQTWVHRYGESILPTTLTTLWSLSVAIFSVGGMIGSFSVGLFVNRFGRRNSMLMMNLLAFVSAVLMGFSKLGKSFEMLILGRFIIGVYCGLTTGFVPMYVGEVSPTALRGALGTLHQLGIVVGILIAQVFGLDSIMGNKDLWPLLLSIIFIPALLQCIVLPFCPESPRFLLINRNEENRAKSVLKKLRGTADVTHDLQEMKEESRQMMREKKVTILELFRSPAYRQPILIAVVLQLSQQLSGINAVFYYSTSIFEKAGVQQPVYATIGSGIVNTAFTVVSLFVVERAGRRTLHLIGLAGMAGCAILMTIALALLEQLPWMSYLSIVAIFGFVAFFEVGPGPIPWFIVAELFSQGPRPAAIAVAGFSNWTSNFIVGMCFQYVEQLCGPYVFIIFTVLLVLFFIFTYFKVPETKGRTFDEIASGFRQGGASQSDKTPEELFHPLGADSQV
PROTOCOL NOTES: Binding activity against Glucose transporter in human erythrocyte membrane using [125I]7-IHPP-Fsk as the radioligand.
Assay type: cell membranes
pKd: −log10 of the molar value.
ASSAY READOUT: pKd

C=C[C@@]1(C)CC(=O)[C@]2(O)[C@@]3(C)[C@@H](O)CCC(C)(C)[C@@H]3[C@H](O)[C@H](OC(=O)NCCN=C=S)[C@@]2(C)O1; 6.30
C=C[C@@]1(C)CC(=O)[C@]2(O)[C@@]3(C)[C@@H](O)CCC(C)(C)[C@@H]3[C@H](OC(=O)NCCN=C=S)[C@H](OC(C)=O)[C@@]2(C)O1; 6.52

1. C=C[C@@]1(C)CC(=O)[C@]2(O)[C@@]3(C)[C@@H](O)CCC(C)(C)[C@@H]3[C@H](OC(=O)NCCNC(=O)CBr)[C@H](OC(C)=O)[C@@]2(C)O1
2. C=C[C@@]1(C)CC(=O)[C@]2(O)[C@@]3(C)[C@@H](O)CCC(C)(C)[C@@H]3[C@H](O)[C@H](OC(=O)NCCNC(=O)CBr)[C@@]2(C)O1
Returns the identifier with the smallest measured pKd among 1 and 2 . Response format: the label of the selected entry.
1
(1: 4.77, 2: 5.89)

====

ASSAYED SYSTEM: Adenylate cyclase type 1 (Bos taurus)
Sequence (P19754 whole entry): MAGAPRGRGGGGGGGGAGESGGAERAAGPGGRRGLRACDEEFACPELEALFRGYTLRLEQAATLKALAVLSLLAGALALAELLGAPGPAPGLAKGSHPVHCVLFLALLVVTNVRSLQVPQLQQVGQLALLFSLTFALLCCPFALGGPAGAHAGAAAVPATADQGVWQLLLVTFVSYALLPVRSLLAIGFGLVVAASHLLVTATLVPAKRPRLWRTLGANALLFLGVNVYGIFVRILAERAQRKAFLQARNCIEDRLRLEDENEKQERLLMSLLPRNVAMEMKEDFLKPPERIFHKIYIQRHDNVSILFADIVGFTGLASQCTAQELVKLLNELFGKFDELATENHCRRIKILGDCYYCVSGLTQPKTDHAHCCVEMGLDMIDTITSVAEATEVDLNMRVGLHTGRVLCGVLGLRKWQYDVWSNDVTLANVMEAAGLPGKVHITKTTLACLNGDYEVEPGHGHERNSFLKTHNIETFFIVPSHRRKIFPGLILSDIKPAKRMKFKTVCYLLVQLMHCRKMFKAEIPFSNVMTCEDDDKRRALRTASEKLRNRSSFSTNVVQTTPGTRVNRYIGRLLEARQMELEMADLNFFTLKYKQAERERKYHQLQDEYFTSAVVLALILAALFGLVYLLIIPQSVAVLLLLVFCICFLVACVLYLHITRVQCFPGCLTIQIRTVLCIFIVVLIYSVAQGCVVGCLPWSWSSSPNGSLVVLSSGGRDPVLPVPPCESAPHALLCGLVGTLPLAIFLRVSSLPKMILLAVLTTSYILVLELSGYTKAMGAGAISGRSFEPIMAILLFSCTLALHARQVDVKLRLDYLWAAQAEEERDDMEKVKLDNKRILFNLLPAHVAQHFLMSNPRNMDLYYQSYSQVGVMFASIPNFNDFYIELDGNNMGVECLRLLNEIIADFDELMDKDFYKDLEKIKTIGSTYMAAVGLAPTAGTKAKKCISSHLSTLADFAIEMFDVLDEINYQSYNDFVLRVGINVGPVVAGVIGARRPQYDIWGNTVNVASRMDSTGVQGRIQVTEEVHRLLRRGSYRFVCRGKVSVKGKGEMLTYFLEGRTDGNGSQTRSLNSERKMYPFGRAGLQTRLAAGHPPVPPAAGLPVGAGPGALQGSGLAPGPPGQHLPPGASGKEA
PROTOCOL NOTES: Displacement of [125I]6-IHPP-Fsk from adenylate cyclase of bovine brain membrane
Type: tissue-based
pKd: −log10 of the molar value.
ASSAY READOUT: pKd

Look over these answered cases.
C=C[C@@]1(C)CC(=O)[C@]2(O)[C@@]3(C)[C@@H](O)CCC(C)(C)[C@@H]3[C@H](O)[C@H](OC(=O)NCCCCCCNC(=O)CCc3ccc(O)cc3)[C@@]2(C)O1; 7.09
C=C[C@@]1(C)CC(=O)[C@]2(O)[C@@]3(C)[C@@H](O)CCC(C)(C)[C@@H]3[C@H](O)[C@H](OC(=O)NCCN)[C@@]2(C)O1; 7.01

P. C=C[C@@]1(C)CC(=O)[C@]2(O)[C@@]3(C)[C@@H](O)CCC(C)(C)[C@@H]3[C@H](O)[C@H](OC(C)=O)[C@@]2(C)O1 [COLFORSIN]
Q. C=C[C@@]1(C)CC(=O)[C@]2(O)[C@@]3(C)[C@@H](O)CCC(C)(C)[C@@H]3[C@H](OC(=O)NCCCCCCNC(=O)CCc3ccc(O)cc3)[C@H](O)[C@@]2(C)O1
R. C=C[C@@]1(C)CC(=O)[C@]2(O)[C@@]3(C)[C@@H](O)CCC(C)(C)[C@@H]3[C@H](OC(=O)NCCNC(=O)CCc3ccc(O)cc3)[C@H](OC(C)=O)[C@@]2(C)O1
S. C=C[C@@]1(C)CC(=O)[C@]2(O)[C@@]3(C)[C@@H](O)CCC(C)(C)[C@@H]3[C@H](O)[C@H](OC(=O)NCCCCCCCNC(=O)CCc3ccc(O)cc3)[C@@]2(C)O1
Which order do these items take when sorted by rising pKd? List them. To answer, write out the labels according to the requested order.
Q, S, P, R

1. C=C[C@@]1(C)CC(=O)[C@]2(O)[C@@]3(C)[C@@H](O)CCC(C)(C)[C@@H]3[C@H](O)[C@H](OC(=O)NCCCCNC(=O)CCc3ccc(O)cc3)[C@@]2(C)O1
2. C=C[C@@]1(C)CC(=O)[C@]2(O)[C@@]3(C)[C@@H](O)CCC(C)(C)[C@@H]3[C@H](OC(=O)NCCN)[C@H](OC(C)=O)[C@@]2(C)O1
Could you kindly indicate whether 1 or 2 has the higher pKd value? Response format: the label of the selected entry.
2
